Measured IC50, listed per entry.
tested on: JIYOYE; test: cells; assay type: functional, cell-based; details: Homo sapiens
Description: SANGER: Inhibition of human JiyoyeP-2003 cell growth in a cell viability assay.

{"compound": "CNC(=O)c1cc(Oc2ccc(NC(=O)Nc3ccc(Cl)c(C(F)(F)F)c3)cc2)ccn1 [SORAFENIB]", "IC50": "> 4000 nM"}
{"compound": "CO[C@H]1C[C@@H]2CC[C@@H](C)[C@@](O)(O2)C(=O)C(=O)N2CCCC[C@H]2C(=O)O[C@H]([C@H](C)C[C@@H]2CC[C@@H](O)[C@H](OC)C2)CC(=O)[C@H](C)/C=C(\\C)[C@@H](O)[C@@H](OC)C(=O)[C@H](C)C[C@H](C)/C=C/C=C/C=C/1C [SIROLIMUS]", "IC50": "10.9 nM"}

Okay, now this compound:
Exercise: Return reported IC50; argument: CN1CCN(CCOc2cc(OC3CCOCC3)c3c(Nc4c(Cl)ccc5c4OCO5)ncnc3c2)CC1 [SARACATINIB]
Key: > 2000 nM

----------
tested on: SW872; assay: cells; assay type: functional, cell-based, Homo sapiens; conditions: Homo sapiens, SW872;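 also: growth inhibition of SW872 cells, read out by a viability assay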
Description: SANGER: Inhibition of human SW872 cell growth in a cell viability assay.
value_type: IC50

Illustrative cases are given below, each with its answer.
{"molecule": "Cn1cncc1[C@@](N)(c1ccc(Cl)cc1)c1ccc2c(c1)c(-c1cccc(Cl)c1)cc(=O)n2C [TIPIFARNIB]", "subject_of_test": "SW872", "value_type": "IC50", "result": "1450 nM"}
{"molecule": "O=C(NOCC1CC1)c1ccc(F)c(F)c1Nc1ccc(I)cc1Cl [CI-1040]", "subject_of_test": "SW872", "value_type": "IC50", "result": "> 10000 nM"}
{"molecule": "CCc1nc(N)nc(N)c1-c1ccc(Cl)cc1 [PYRIMETHAMINE]", "subject_of_test": "SW872", "value_type": "IC50", "result": "> 20000 nM"}
{"molecule": "CN(Cc1cnc2nc(N)nc(N)c2n1)c1ccc(C(=O)N[C@@H](CCC(=O)O)C(=O)O)cc1 [METHOTREXATE]", "subject_of_test": "SW872", "value_type": "IC50", "result": "> 200 nM"}

Okay, now this molecule:
Exercise: Return reported IC50; argument: Cc1cnc(-c2cnc(NCCNc3ccc(C#N)cn3)nc2-c2ccc(Cl)cc2Cl)[nH]1 [LADUVIGLUSIB]
Key: > 2560 nM

----------
tested on: RS4-11; assay: cells; assay type: functional, cell-based; conditions: Homo sapiens;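 also: growth inhibition of RS4-11 cells, read out by a cell viability assay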
Description: SANGER: Inhibition of human RS4-11 cell growth in a cell viability assay.
value_type: IC50

{"molecule": "CN(c1ncccc1CNc1nc(Nc2ccc3c(c2)CC(=O)N3)ncc1C(F)(F)F)S(C)(=O)=O [PF-00562271]", "subject_of_test": "RS4-11", "IC50": "> 2560 nM"}
{"molecule": "C=CCNC1=C2C[C@@H](C)C[C@H](OC)[C@H](O)[C@@H](C)/C=C(\\C)[C@H](OC(N)=O)[C@@H](OC)/C=C\\C=C(/C)C(=O)NC(=CC1=O)C2=O [TANESPIMYCIN]", "subject_of_test": "RS4-11", "IC50": "> 1000 nM"}

Exercise: State its IC50 on RS4-11: COc1ccc(C2=N[C@@H](c3ccc(Cl)cc3)[C@@H](c3ccc(Cl)cc3)N2C(=O)N2CCNC(=O)C2)c(OC(C)C)c1 [NUTLIN-3]
Key: 2720 nM

----------
test system: ES8; experiment: cells; type: functional, cell-based, Homo sapiens; settings: Homo sapiens, ES8;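 also: growth inhibition of human ES8 cells, read out with a cell viability assay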
Description: SANGER: Inhibition of human ES8 cell growth in a cell viability assay.
value_type: pIC50
Keep in mind that pIC50 stands for -log10 of concentration in molar terms.

Illustrative cases are given below, each with its answer.
{"molecule": "Cc1cc(Nc2cc(N3CCN(C)CC3)nc(Sc3ccc(NC(=O)C4CC4)cc3)n2)n[nH]1", "value_type": "pIC50", "quantitative_result": 7.34}
{"molecule": "COc1cc([C@@H]2c3cc4c(cc3[C@@H](O[C@@H]3O[C@@H]5CO[C@@H](C)O[C@H]5[C@H](O)[C@H]3O)[C@H]3COC(=O)[C@H]23)OCO4)cc(OC)c1O [ETOPOSIDE]", "value_type": "pIC50", "quantitative_result": 6.85}

Exercise: Return reported pIC50; argument: `C=CCNC1=C2C[C@@H](C)C[C@H](OC)[C@H](O)[C@@H](C)/C=C(\C)[C@H](OC(N)=O)[C@@H](OC)/C=C\C=C(/C)C(=O)NC(=CC1=O)C2=O`
Key: 6.51

----------
tested on: COR-L88; assay: cells; format: functional, cell-based; settings: Homo sapiens
Description: SANGER: Inhibition of human COR-L88 cell growth in a cell viability assay.
pIC50: −log10 of the molar value.
value_type: pIC50

Illustrative cases are given below, each with its answer.
{"compound": "Cc1cc([C@@H](C)Nc2ccccc2C(=O)O)c2nc(N3CCOCC3)cc(=O)n2c1 [AZD-6482]", "subject_of_test": "COR-L88", "pIC50": "< 5.29"}
{"compound": "Cc1cc(Nc2cc(N3CCN(C)CC3)nc(Sc3ccc(NC(=O)C4CC4)cc3)n2)n[nH]1 [TOZASERTIB]", "subject_of_test": "COR-L88", "pIC50": "< 5.70"}
{"compound": "COc1ccc(C2=N[C@@H](c3ccc(Cl)cc3)[C@@H](c3ccc(Cl)cc3)N2C(=O)N2CCNC(=O)C2)c(OC(C)C)c1 [NUTLIN-3]", "subject_of_test": "COR-L88", "pIC50": "< 5.10"}
{"compound": "CCC1=C[C@@H]2CN(C1)Cc1c([nH]c3ccccc13)[C@@](C(=O)OC)(c1cc3c(cc1OC)N(C)[C@H]1[C@@](O)(C(=O)OC)[C@H](OC(C)=O)[C@]4(CC)C=CCN5CC[C@]31[C@@H]54)C2 [VINORELBINE]", "subject_of_test": "COR-L88", "pIC50": 7.46}
{"compound": "CC1=C2C[C@H]3[C@@H](CC=C4C[C@@H](O)CC[C@@]43C)[C@@H]2CC[C@]12O[C@@H]1C[C@H](C)CN[C@H]1[C@H]2C [CYCLOPAMINE]", "subject_of_test": "COR-L88", "pIC50": "< 4.80"}

Exercise: Return reported pIC50; argument: O=C(/C=C/c1ccccc1)NC(NC(=S)Nc1cccc2cccnc12)C(Cl)(Cl)Cl (configuration not stated) [SALUBRINAL]
Key: < 4.80

Exercise: Same lookup for `O=C1N=C(NCc2cccs2)S/C1=C\c1ccc2ncccc2c1` , please.
Key: 5.46

Exercise: Same lookup for CCC(=O)N1CCN(c2ccc(-n3c(=O)ccc4cnc5ccc(-c6cnc7ccccc7c6)cc5c43)cc2C(F)(F)F)CC1 [TORIN1] , please.
Key: 5.95

Exercise: Same lookup for Nc1ccn([C@@H]2O[C@H](CO)[C@@H](O)[C@@H]2O)c(=O)n1 [CYTARABINE] , please.
Key: < 5.70

Exercise: Same lookup for `CCOc1nc(NC(=O)Cc2cc(OC)ccc2OC)cc(N)c1C#N` , please.
Key: < 5.00

Exercise: Same lookup for COc1cc([C@@H]2c3cc4c(cc3[C@@H](O[C@@H]3O[C@@H]5CO[C@@H](C)O[C@H]5[C@H](O)[C@H]3O)[C@H]3COC(=O)[C@H]23)OCO4)cc(OC)c1O [ETOPOSIDE] , please.
Key: < 4.80

Exercise: Same lookup for CO[C@H]1C[C@@H]2CC[C@@H](C)[C@@](O)(O2)C(=O)C(=O)N2CCCC[C@H]2C(=O)O[C@H]([C@H](C)C[C@@H]2CC[C@@H](O)[C@H](OC)C2)CC(=O)[C@H](C)/C=C(\C)[C@@H](O)[C@@H](OC)C(=O)[C@H](C)C[C@H](C)/C=C/C=C/C=C/1C [SIROLIMUS] , please.
Key: < 7.00

----------
system: EFO-27; experiment: cells; format: functional, cell-based, Homo sapiens; details: Homo sapiens, EFO-27
Description: SANGER: Inhibition of human EFO-27 cell growth in a cell viability assay.
Measured IC50, listed per entry.

{"compound": "Cc1cc([C@@H](C)Nc2ccccc2C(=O)O)c2nc(N3CCOCC3)cc(=O)n2c1 [AZD-6482]", "subject_of_test": "EFO-27", "IC50": "> 5.12 µM"}
{"compound": "CN(c1ncccc1CNc1nc(Nc2ccc3c(c2)CC(=O)N3)ncc1C(F)(F)F)S(C)(=O)=O [PF-00562271]", "subject_of_test": "EFO-27", "IC50": "2.52 µM"}

Okay, now this compound:
Exercise: Return reported IC50; argument: O=c1cc(-c2cccc3c2Sc2ccccc2S3)oc(N2CCOCC2)c1 [KU-55933]
Key: > 10 µM

----------
system: NCI-H345; assay: cells; type: functional, cell-based; conditions: Homo sapiens;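 also: growth inhibition of NCI-H345 cells measured with a cell viability assay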
Description: SANGER: Inhibition of human NCI-H345 cell growth in a cell viability assay.
value_type: IC50

Illustrative cases are given below, each with its answer.
{"molecule": "COC(=O)CNC(=O)C(=O)OC", "IC50": "648 µM"}
{"molecule": "Cc1cc([C@@H](C)Nc2ccccc2C(=O)O)c2nc(N3CCOCC3)cc(=O)n2c1 [AZD-6482]", "IC50": "> 5.12 µM"}
{"molecule": "Cc1cnc(-c2cnc(NCCNc3ccc(C#N)cn3)nc2-c2ccc(Cl)cc2Cl)[nH]1 [LADUVIGLUSIB]", "IC50": "> 2.56 µM"}
{"molecule": "CS(=O)(=O)CCNCc1ccc(-c2ccc3ncnc(Nc4ccc(OCc5cccc(F)c5)c(Cl)c4)c3c2)o1 [LAPATINIB]", "IC50": "> 2 µM"}

Okay, now this molecule:
Exercise: Return reported IC50; argument: Cn1cncc1[C@@](N)(c1ccc(Cl)cc1)c1ccc2c(c1)c(-c1cccc(Cl)c1)cc(=O)n2C [TIPIFARNIB]
Key: > 16 µM
